reported-metric: melting point

| smiles-representation | result-value |
| --- | --- |
| CC(=O)Nc1nc(=O)n(C(=O)c2ccc(C)cc2)cc1F | 146.9 to 148.2 °C |
| Nc1nc(=O)n(C(=O)c2ccc(F)c(F)c2)cc1F | 150 to 152 °C |
| Nc1nc(=O)n(C(=O)c2ccsc2)cc1F | 223.1 to 225.2 °C |
| CC(=O)Nc1nc(=O)n(C(=O)c2ccccc2)cc1F | 122.8 to 123.6 °C |
| COc1ccc(C(=O)n2cc(F)c(N)nc2=O)cc1OC | 170 to 172 °C |
| Cc1ccc(C(=O)n2cc(F)c(N)nc2=O)cc1 | 257 to 259.5 °C |
| Nc1nc(=O)n(C(=O)c2ccccc2F)cc1F | 228.3 to 229.7 °C |
| Cc1ccc(C(=O)n2cc(F)c(/N=C/N(C)C)nc2=O)cc1 | 128.8 to 130.5 °C |
| CC(C)=CC(=O)n1cc(F)c(/N=C/N(C)C)nc1=O | 128 to 130 °C |
| CN(C)/C=N/c1nc(=O)n(C(=O)c2ccccc2)cc1F | 137.3 to 139 °C |
| CN(C)/C=N/c1nc(=O)n(C(=O)c2cccc(Cl)c2)cc1F | 95.3 to 97.7 °C |
| COc1ccc(C(=O)n2cc(F)c(N)nc2=O)cc1 | 257.9 to 259.6 °C |
| CC(=O)Nc1nc(=O)n(C(=O)c2cccc(Cl)c2)cc1F | 129.5 to 131 °C |
| CN(C)/C=N/c1nc(=O)n(C(=O)c2cccs2)cc1F | 154.8 to 156.5 °C |
| CC(=O)n1cc(F)c(/N=C/N(C)C)nc1=O | 125 to 130 °C (dec.) |
| CN(C)/C=N/c1nc(=O)n(C(=O)c2c(Cl)cccc2Cl)cc1F | 185 to 187 °C |
| Nc1nc(=O)n(C(=O)c2ccccc2)cc1F | 213.2 to 215.3 °C |
| COc1ccc(C(=O)n2cc(F)c(/N=C/N(C)C)nc2=O)cc1 | 126.2 to 128.3 °C |
| Cc1cccc(C)c1C(=O)n1cc(F)c(/N=C/N(C)C)nc1=O | 120 to 150 °C |
| CN(C)/C=N/c1nc(=O)n(C(=O)c2ccc(F)c(F)c2)cc1F | 130 to 132 °C |
